System: apo-B production in HepG2 cells
Assay: Apo-B content of medium of HepG2 cells by ELISA
Assay type: cell-based, human
Details: HepG2, comparison of limonin and flavonoids, FIG. 5; read-out: IC50 apo-B content
quantity name: IC50 (µM)

                                test_smiles  unit_annotation  recorded_result
0  COc1ccc([C@@H]2CC(=O)c3c(O)cc(O)cc3O2)cc1O               µM               43
